Tested on: Fibroblast
Assay: Multiplex assay against human fibroblast
Format: toxicity, cell-based
Details: 24 h, 1 µM, compound concentration 1 uM, replicate 2
As shown below, each of these compounds has a reported Population Healthy Nuclei (%) value.
Dear colleague, please return just the value in %, with no unit written.

*Q* # get_value(readout='Population Healthy Nuclei (%)', item= `Cl.Cl.Nc1ncnc2c1c(-c1cccc(OCc3ccccc3)c1)cn2[C@H]1C[C@@H](CN2CCC2)C1` )
*A* 64

*Q* Proceed to CNC(=O)c1nn(C)c2c1C(C)(C)Cc1cnc(Nc3ccc(N4CCN(C)CC4)cc3)nc1-2 [MILCICLIB]
*A* 33

*Q* Proceed to Cc1nc(Cc2cccc(C(F)(F)F)c2)sc1-c1ccc(C(N)=O)nc1 [TP-024n]
*A* 91

Next:
*Q* # get_value(readout='Population Healthy Nuclei (%)', item= CNC(=O)c1cc(Oc2ccc(NC(=O)Nc3cc(C(C)(C)C)nn3-c3ccc4ncccc4c3)c(F)c2)ccn1 [REBASTINIB] )
*A* 37

###

Tested on: HEK-293T
Assay: Multiplex assay against HEK293T
Format: toxicity, cell-based
Settings: human, 48 h, 1 µM, compound concentration 1 uM, replicate 1
Binary call on Population Membrane Permeable-Phenotype (%): satisfied from 4% upward, not satisfied beneath that.

The examples below pair each entry with its known result.
*Q* Textbook exercise: given the entry `Cc1cc2c(cc1N1C(=O)c3cccc4c(CCCO)ccc(c34)C1=O)n(C)c(=O)n2C` , state whether its Population Membrane Permeable-Phenotype (%) is greater than or equal to 4%.
*A* not satisfied

*Q* Proceed to `CC(C)N1CCC(C)(C)c2cc(C#Cc3ccc(C(=O)O)cc3)ccc21`
*A* satisfied

*Q* Proceed to `Nc1nc2c(c(N3CCNCC3)n1)CCC1=C2[C@@H]2CCCC[C@@H]2O1`
*A* not satisfied

*Q* Proceed to `CNc1oc(-c2cccc3ccccc23)nc1C#N`
*A* not satisfied

*Q* Proceed to `CC(=O)c1cc(-c2cc(C(=O)NC3CC3)ccc2C)c2ncccn12`
*A* satisfied

*Q* Proceed to `CCc1cc2c(cc1CC)CC(NC[C@H](O)c1ccc(O)c3[nH]c(=O)ccc13)C2`
*A* not satisfied

*Q* Proceed to `COc1ccc(NS(=O)(=O)c2sc3ccc(Cl)cc3c2C)cc1N1CCNCC1.Cl`
*A* not satisfied

*Q* Proceed to CCC(=O)O[C@]1(C(=O)SCF)[C@H](C)C[C@H]2[C@@H]3C[C@H](F)C4=CC(=O)C=C[C@]4(C)[C@@]3(F)[C@@H](O)C[C@@]21C [FLUTICASONE PROPIONATE]
*A* not satisfied

*Q* Proceed to `O=C(O)c1ccc2cc(-c3ccc(O)c(C45CC6CC(CC(C6)C4)C5)c3)ccc2c1`
*A* not satisfied

Next:
*Q* Textbook exercise: given the entry `Cl.Cl.Nc1ncnc2c1c(-c1cccc(OCc3ccccc3)c1)cn2[C@H]1C[C@@H](CN2CCC2)C1` , state whether its Population Membrane Permeable-Phenotype (%) is greater than or equal to 4%.
*A* not satisfied

###

As shown below, each of these molecules has a reported Population Healthy Nuclei (%) value.
System: Fibroblast
Experiment: Multiplex assay against human fibroblast
Type: toxicity, cell-based
Conditions: 12 h, 10 µM, compound concentration 10 uM, replicate 1
Dear colleague, please return just the value in %, with no unit written.

*Q* # get_value(readout='Population Healthy Nuclei (%)', item= `CCOc1cc2ncc(C#N)c(Nc3ccc(OCc4cccc(F)c4)c(Cl)c3)c2cc1NC(=O)/C=C/CN(C)C` )
*A* 37

*Q* Proceed to `COc1cc2c(Nc3ccc(NC(=O)c4ccccc4)cc3)ncnc2cc1OCCCN1CCOCC1`
*A* 49

*Q* Proceed to `CC(C)N1CCC(C)(C)c2cc(C#Cc3ccc(C(=O)O)cc3)ccc21`
*A* 6

*Q* Proceed to `Cc1cn(-c2cc(NC(=O)c3ccc4c(c3)CN(c3cncnc3)C[C@@H]4C)cc(C(F)(F)F)c2)cn1`
*A* 49

Next:
*Q* # get_value(readout='Population Healthy Nuclei (%)', item= `CC(=O)c1cc(-c2cc(C(=O)NC3CC3)ccc2C)c2ncccn12` )
*A* 40

###

Tested on: HEK-293T
Assay: Multiplex assay against HEK293T
Type: toxicity, cell-based
Conditions: human, 12 h, 1 µM, compound concentration 1 uM, replicate 2
Population Healthy Nuclei (%) under 50% gets 1 (yes), anything at or over 50% gets 0 (no).

The examples below pair each entry with its known result.
*Q* Bench note: check whether CN(C)C/C=C/C(=O)Nc1cc2c(Nc3ccc(F)c(Cl)c3)ncnc2cc1O[C@H]1CCOC1.O=C(O)/C=C\C(=O)O.O=C(O)/C=C\C(=O)O [AFATINIB DIMALEATE] shows Population Healthy Nuclei (%) below 50%
*A* 0 (no)

*Q* Proceed to CCC(=O)O[C@]1(C(=O)SCF)[C@H](C)C[C@H]2[C@@H]3C[C@H](F)C4=CC(=O)C=C[C@]4(C)[C@@]3(F)[C@@H](O)C[C@@]21C [FLUTICASONE PROPIONATE]
*A* 1 (yes)

*Q* Proceed to `Cl.Cl.NC1(c2ccc(-c3nc4ccn5c(=O)[nH]nc5c4cc3-c3ccccc3)cc2)CCC1`
*A* 0 (no)

Next:
*Q* Bench note: check whether `Nc1nc2c(c(N3CCNCC3)n1)CCC1=C2[C@@H]2CCCC[C@@H]2O1` shows Population Healthy Nuclei (%) below 50%
*A* 1 (yes)

*Q* Proceed to `COc1cc2c(NC3CCN(C(C)C)CC3)nc(N3CCC(F)(F)CC3)nc2cc1OCCCN1CCCC1`
*A* 1 (yes)

*Q* Proceed to Cc1nc(Cc2cccc(C(F)(F)F)c2)sc1-c1ccc(C(N)=O)nc1 [TP-024n]
*A* 1 (yes)

*Q* Proceed to `CNC(=O)c1cc(Oc2ccc(NC(=O)Nc3cc(C(C)(C)C)nn3-c3ccc4ncccc4c3)c(F)c2)ccn1`
*A* 0 (no)

*Q* Proceed to `CCOc1cc2ncc(C#N)c(Nc3ccc(OCc4cccc(F)c4)c(Cl)c3)c2cc1NC(=O)/C=C/CN(C)C`
*A* 0 (no)

*Q* Proceed to `Cl.Cl.Nc1ncnc2c1c(-c1cccc(OCc3ccccc3)c1)cn2[C@H]1C[C@@H](CN2CCC2)C1`
*A* 1 (yes)

*Q* Proceed to `O=C(O)c1ccc2cc(-c3ccc(O)c(C45CC6CC(CC(C6)C4)C5)c3)ccc2c1`
*A* 0 (no)

*Q* Proceed to `N#Cc1cnc(Nc2cc(NC[C@H]3CNCCO3)c(C(F)(F)F)cn2)cn1`
*A* 0 (no)

*Q* Proceed to `COc1cc(N2CCC(N(C)C)CC2)ccc1Nc1ncc(Cl)c(Nc2ccccc2P(C)(C)=O)n1`
*A* 0 (no)

###

Test system: U2OS
Experiment: Incucyte cell viability with U2OS; further: filed as whole numbers so only -1 and 0 and 1 occur
Format: toxicity, cell-based
Settings: human, 0 h, 10 µM, compound concentration 10 uM, replicate number 1, timepoint 0 hours
endpoint: Growth Rate
No unit in the answer, please; the number alone is enough.

*Q* What value of Growth Rate on U2OS does `C1=N/C2=N/c3ccc(OCCN4CCCC4)c(c3)COC/C=C\COCc3cccc(c3)C(=C1)N2` have?
*A* 0

Next:
*Q* What value of Growth Rate on U2OS does `Cc1cn(-c2cc(NC(=O)c3ccc4c(c3)CN(c3cncnc3)C[C@@H]4C)cc(C(F)(F)F)c2)cn1` have?
*A* 0

###

As shown below, each of these compounds has a reported Population Fragmented Nuclei (%) value.
System: HEK-293T
Test: Multiplex assay against HEK293T
Format: toxicity, cell-based
Settings: human, 24 h, 10 µM, compound concentration 10 uM, replicate 1

*Q* What value of Population Fragmented Nuclei (%) on HEK-293T does CCn1c(-c2nonc2N)nc2cnc(Oc3cccc(NC(=O)c4ccc(OCCN5CCOCC5)cc4)c3)cc21 [GSK-269962A] have?
*A* 12%

Next:
*Q* What value of Population Fragmented Nuclei (%) on HEK-293T does CN(C)CCOc1ccc(-c2nc(-c3ccncc3)c(-c3ccc4c(c3)CC/C4=N\O)[nH]2)cc1 [SB590885] have?
*A* 9%

*Q* Proceed to CCCn1c(=O)c2[nH]c(C34CC5CC(CC3C5)C4)nc2n(CCC)c1=O [ROLOFYLLINE]
*A* 13%

*Q* Proceed to N#Cc1cnc(Nc2cc(NC[C@H]3CNCCO3)c(C(F)(F)F)cn2)cn1 [SRA-737]
*A* 10%

*Q* Proceed to CCc1cc2c(cc1CC)CC(NC[C@H](O)c1ccc(O)c3[nH]c(=O)ccc13)C2 [INDACATEROL]
*A* 22%

*Q* Proceed to CC(=O)O[C@H]1C(=O)[C@@]2(C)[C@H]([C@H](OC(=O)c3ccccc3)[C@]3(O)C[C@H](OC(=O)[C@H](O)[C@@H](NC(=O)c4ccccc4)c4ccccc4)C(C)=C1C3(C)C)[C@]1(OC(C)=O)CO[C@@H]1C[C@@H]2O [PACLITAXEL]
*A* 15% [middle of 4 runs]

*Q* Proceed to Cc1nc(Cc2cccc(C(F)(F)F)c2)sc1-c1ccc(C(N)=O)nc1 [TP-024n]
*A* 11%
